# assay_target: Adenosine receptor A2b (Homo sapiens, UniProt P29275)
# assay_summary: Agonist activity at human adenosine A2B receptor expressed in CHO cells assessed as stimulation of cAMP production
pEC50: −log10 of the molar value.
Label Met when pEC50 is at or above 7; anything below gets Not met.

>>> class_label("CCNC(=O)[C@H]1O[C@@H](n2cnc3c(Nc4ccc(OCC(=O)Nc5cc(OC)cc(OC)c5)cc4)ncnc32)[C@H](O)[C@@H]1O")
"Met"
>>> class_label("CCNC(=O)[C@H]1O[C@@H](n2cnc3c(Nc4ccc(OCC(=O)Nc5ccc(OC)cc5)cc4)nc(Cl)nc32)[C@H](O)[C@@H]1O")
"Not met"
>>> class_label("CCNC(=O)[C@H]1O[C@@H](n2cnc3c(Nc4ccc(OCC(=O)Nc5ccc6c(c5)OCO6)cc4)ncnc32)[C@H](O)[C@@H]1O")
"Met"
>>> class_label("CCNC(=O)[C@H]1O[C@@H](n2cnc3c(Nc4ccc(OCC(=O)Nc5ccc(C(C)(C)C)cc5)cc4)ncnc32)[C@H](O)[C@@H]1O")
"Met"
>>> class_label("CCNC(=O)[C@H]1O[C@@H](n2cnc3c(Nc4ccc(OCC(=O)NCc5ccc(OC)cc5)cc4)ncnc32)[C@H](O)[C@@H]1O")
"Not met"
>>> class_label("CCNC(=O)[C@H]1O[C@@H](n2cnc3c(Nc4ccc(OCC(=O)NCc5ccccc5)cc4)nc(Cl)nc32)[C@H](O)[C@@H]1O")
"Not met"
>>> class_label("CCNC(=O)[C@H]1O[C@@H](n2cnc3c(Nc4ccc(OCC(=O)Nc5ccc(Cl)cc5)cc4)ncnc32)[C@H](O)[C@@H]1O")
"Met"

* * *

pKi: −log10 of the molar value.
UniProt P0DMS8: reported pKi for various compounds.
Sequence (P0DMS8 whole entry): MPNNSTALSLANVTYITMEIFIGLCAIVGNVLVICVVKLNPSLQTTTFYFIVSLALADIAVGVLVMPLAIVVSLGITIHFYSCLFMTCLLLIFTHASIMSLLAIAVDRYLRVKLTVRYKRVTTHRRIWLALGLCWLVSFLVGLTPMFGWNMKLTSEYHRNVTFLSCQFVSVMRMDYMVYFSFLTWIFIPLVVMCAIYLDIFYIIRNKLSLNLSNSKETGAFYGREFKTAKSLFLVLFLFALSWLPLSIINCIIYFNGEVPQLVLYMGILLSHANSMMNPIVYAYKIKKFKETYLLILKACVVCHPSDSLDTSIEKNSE
property_name: pKi

>>> number("CCNC(=O)[C@H]1O[C@@H](n2cnc3c(Nc4ccc(OCC(=O)Nc5ccncc5)cc4)ncnc32)[C@H](O)[C@@H]1O")
7.37
>>> number("CCNC(=O)[C@H]1O[C@@H](n2cnc3c(Nc4ccc(OCC(=O)Nc5ccc(Cl)cc5)cc4)ncnc32)[C@H](O)[C@@H]1O")
7.47
>>> number("CCNC(=O)[C@H]1O[C@@H](n2cnc3c(Nc4ccc(OCC(=O)Nc5ccc(N6CCOCC6)cc5)cc4)ncnc32)[C@H](O)[C@@H]1O")
6.49
>>> number("CCNC(=O)[C@H]1O[C@@H](n2cnc3c(Nc4ccc(OCC(=O)Nc5ccccc5C(F)(F)F)cc4)ncnc32)[C@H](O)[C@@H]1O")
6.94
>>> number("CCNC(=O)[C@H]1O[C@@H](n2cnc3c(Nc4ccc(OCC(=O)Nc5ccc(C(C)(C)C)cc5)cc4)ncnc32)[C@H](O)[C@@H]1O")
7.40
>>> number("CCNC(=O)[C@H]1O[C@@H](n2cnc3c(Nc4ccc(OCC(=O)Nc5cc(OC)cc(OC)c5)cc4)ncnc32)[C@H](O)[C@@H]1O")
7.10
>>> number("CCNC(=O)[C@H]1O[C@@H](n2cnc3c(Nc4ccc(OCC(=O)Nc5ccc(I)cc5)cc4)ncnc32)[C@H](O)[C@@H]1O")
7.07

* * *

# assay_target: Adenosine receptor A2b (Homo sapiens, UniProt P29275)
# Sequence (P29275 whole entry): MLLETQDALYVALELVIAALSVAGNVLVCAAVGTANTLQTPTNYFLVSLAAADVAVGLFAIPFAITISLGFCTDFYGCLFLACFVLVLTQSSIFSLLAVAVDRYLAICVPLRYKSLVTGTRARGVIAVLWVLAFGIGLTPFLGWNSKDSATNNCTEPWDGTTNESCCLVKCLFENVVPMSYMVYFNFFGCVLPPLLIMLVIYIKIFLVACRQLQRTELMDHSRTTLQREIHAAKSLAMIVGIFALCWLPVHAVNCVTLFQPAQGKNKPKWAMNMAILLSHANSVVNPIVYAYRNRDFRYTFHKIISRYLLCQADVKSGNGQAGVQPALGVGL
# assay_summary: Agonist activity at human adenosine A2B receptor expressed in CHO cells assessed as stimulation of cAMP production
pEC50: −log10 of the molar value.
property_name: pEC50

>>> number("CCNC(=O)[C@H]1O[C@@H](n2cnc3c(Nc4ccc(OCC(=O)Nc5ccc(Br)cc5)cc4)ncnc32)[C@H](O)[C@@H]1O")
7.98
>>> number("CCNC(=O)[C@H]1O[C@@H](n2cnc3c(Nc4ccc(OCC(=O)Nc5ccncc5)cc4)ncnc32)[C@H](O)[C@@H]1O")
7.49
>>> number("CCNC(=O)[C@H]1O[C@@H](n2cnc3c(Nc4ccc(OCC(=O)Nc5ccc(F)cc5)cc4)ncnc32)[C@H](O)[C@@H]1O")
7.82
>>> number("CCNC(=O)[C@H]1O[C@@H](n2cnc3c(Nc4ccc(OCC(=O)Nc5ccc(N6CCOCC6)cc5)cc4)ncnc32)[C@H](O)[C@@H]1O")
6.52
>>> number("CCNC(=O)[C@H]1O[C@@H](n2cnc3c(Nc4ccc(OCC(=O)NCc5ccccc5)cc4)ncnc32)[C@H](O)[C@@H]1O")
6.82
>>> number("CCNC(=O)[C@H]1O[C@@H](n2cnc3c(Nc4ccc(OCC(=O)Nc5ccc(I)cc5)cc4)ncnc32)[C@H](O)[C@@H]1O")
7.52
>>> number("CCNC(=O)[C@H]1O[C@@H](n2cnc3c(Nc4ccc(OCC(=O)Nc5ccc(OC)c(OC)c5)cc4)ncnc32)[C@H](O)[C@@H]1O")
7.34

The reported numbers originate from ChEMBL document CHEMBL1142924.
